Test system: CAL-120
TEST: normalised viability (% of control), CellTiter-Blue; higher = more viable cells (100 = DMSO, 0 = benzethonium chloride kill control)
DETAILS: incubation time: 72 h
Assign normalised viability to each entry below.
Numbers only, in %.

CN[C@@H]1C[C@H]2O[C@@](C)([C@@H]1OC)n1c3ccccc3c3c4c(c5c6ccccc6n2c5c31)C(=O)N[C@H]4O [UCN-01] (1 nM) :: 82.9
Clc1ccc(Nc2nnc(Cc3ccncc3)c3ccccc23)cc1 [Vatalanib] (1 nM) :: 84.3
Cn1c(CCCC(=O)O)nc2cc(N(CCCl)CCCl)ccc21 [Bendamustine] (1 nM) :: 90.5
CCC1=C[C@@H]2CN(C1)Cc1c([nH]c3ccccc13)[C@@](C(=O)OC)(c1cc3c(cc1OC)N(C)[C@H]1[C@@](O)(C(=O)OC)[C@H](OC(C)=O)[C@]4(CC)C=CCN5CC[C@]31[C@@H]54)C2 [Vinorelbine] (1 nM) :: 94.2
CNCc1ccc(-c2[nH]c3cc(F)cc4c3c2CCNC4=O)cc1 [Rucaparib] (1 nM) :: 79.5

Provide the reported normalised viability of each entry below, same order.
1. Oc1nc(-c2ccc(C(F)(F)F)cc2)nc2c1CSCC2 [XAV-939] (1 nM)
2. C[C@@H](Oc1cc(-c2cnn(C3CCNCC3)c2)cnc1N)c1c(Cl)ccc(F)c1Cl [Crizotinib] (1 nM)

1: 97.7; 2: 90.6
